Just for reference, the supplement of paper PMC7877785 is where these values come from.

- METHOD_NOTES: self-splicing fitness, log relative to wild type (ln ratio); higher = more splicing; Tetrahymena group I intron in knt gene, E. coli kanamycin selection, DiMSum; sequences stand for … in CUCUCU…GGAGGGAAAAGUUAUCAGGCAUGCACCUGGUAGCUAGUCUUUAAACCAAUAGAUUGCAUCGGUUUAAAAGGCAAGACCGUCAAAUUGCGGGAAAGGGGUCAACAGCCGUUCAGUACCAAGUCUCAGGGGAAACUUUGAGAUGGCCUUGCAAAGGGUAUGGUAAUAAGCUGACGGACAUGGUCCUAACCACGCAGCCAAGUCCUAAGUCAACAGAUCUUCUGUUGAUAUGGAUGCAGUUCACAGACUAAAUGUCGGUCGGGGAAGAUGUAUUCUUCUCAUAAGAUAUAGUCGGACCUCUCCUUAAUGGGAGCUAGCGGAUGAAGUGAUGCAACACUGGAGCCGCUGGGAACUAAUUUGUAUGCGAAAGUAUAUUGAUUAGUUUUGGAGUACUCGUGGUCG;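 further: selection with 25 µg/mL kanamycin versus none on LB agar overnight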
- RECORDED_CONDITIONS: 37 °C
Each item that follows carries a reported self-splicing fitness (ln).
REPORTED_METRIC: self-splicing fitness (ln)

- UUAGAGCAAUAUUACGGCAU: -1.16
- GCGAAGCAAUAUUACGAGCG: -1.11
- GACUAGCAAUAUUACGUUUU: -1.42
- CAAGAGCAAUAUUACGCAUC: -0.397
- ACAUAGCAAUAUUACGGACA: -0.382
- CACGAGCAAUAUUACGGGGA: -2.51
- CCGAAGCAAUAUUACGUGUC: -1.34
- CUCGAGCAAUAUUACGAUGG: -1.61
- ACUGAGCAAUAUUACGGCGC: -0.47
- CUUCAGCAAUAUUACGAGUG: -0.602
- UCUGAGCAAUAUUACGAAUC: -3.03
- GGCAAGCAAUAUUACGCGAA: 0.499
- AUGCAGCAAUAUUACGGAGG: -2.07
- AGAAAGCAAUAUUACGGAAA: -1.33
- GCCCAGCAAUAUUACGCAAU: -0.336
- CAAAAGCAAUAUUACGUCAG: -0.392
- CUUGAGCAAUAUUACGGGAA: -2.73
- GCAGAGCAAUAUUACGUCUA: -2.57
- GGAUAGCAAUAUUACGCAGC: -1.59
- CAGCAGCAAUAUUACGGCUG: -1.82
- ACGAAGCAAUAUUACGGGGU: -2.33
- CCAAAGCAAUAUUACGUUCA: -3.38
- UGCGAGCAAUAUUACGGACA: 0.226
- AGAAAGCAAUAUUACGCUAG: -2.65
- UCGUAGCAAUAUUACGAAUU: -3.57
- GUAAAGCAAUAUUACGACGU: 0.169
- CGGAAGCAAUAUUACGUACG: -2.26
- GUCUAGCAAUAUUACGUCAC: -3.04
- AGCCAGCAAUAUUACGUCCA: -1.99
- UAUGAGCAAUAUUACGGCGC: -1.46
- CCAUAGCAAUAUUACGUCCA: -1.85
- CUUAAGCAAUAUUACGGCGA: -1.81
- ACCUAGCAAUAUUACGCUCA: -0.169
- GCUAAGCAAUAUUACGUCCA: -0.684
- CGGCAGCAAUAUUACGGCCG: -1.42
- AGAGAGCAAUAUUACGAAGG: -1.42
- ACCUAGCAAUAUUACGCGGC: -1.38
- CCGUAGCAAUAUUACGGCUA: -3.04
- AUGGAGCAAUAUUACGUGGC: -2.39
- GUCGAGCAAUAUUACGAAAU: -1.29
- CAAGAGCAAUAUUACGGUUU: -2.33
- ACUAAGCAAUAUUACGACCC: -0.275
- GCGUAGCAAUAUUACGUGCU: -2.44
- CGCCAGCAAUAUUACGUAAC: -2.96
- UUCAAGCAAUAUUACGCUCC: -1.86
- AAGAAGCAAUAUUACGUACU: 0.141
- CGGUAGCAAUAUUACGGUAA: -3.12
- AAAAAGCAAUAUUACGGUAA: -0.53
- CAACAGCAAUAUUACGCGUU: -1.62
- GUGCAGCAAUAUUACGGGUU: -0.752
- CGCUAGCAAUAUUACGGCGG: -0.662
- CAAGAGCAAUAUUACGGGUA: -1.64
- CCCGAGCAAUAUUACGAAAG: -1.7
- CUGCAGCAAUAUUACGCAGU: -3.15
- AUCCAGCAAUAUUACGAGUA: -1.07
- AAACAGCAAUAUUACGCUUC: -2.35
- CAUUAGCAAUAUUACGGUGU: -3.76
- AGGAAGCAAUAUUACGGAAA: -2.26
- GGUGAGCAAUAUUACGGGCG: -0.473
- CAGGAGCAAUAUUACGCGCG: -0.0818
- ACGCAGCAAUAUUACGGUGU: -2.29
- CCCUAGCAAUAUUACGUGGU: -2.27
- CGUAAGCAAUAUUACGGCAU: -2.37
- AAGGAGCAAUAUUACGGCGA: -0.936
- GUAAAGCAAUAUUACGUAGA: -1.32
- UUCAAGCAAUAUUACGCGGU: -1.96
- UUCGAGCAAUAUUACGAAGC: -1.91

* * *

Each item that follows carries a reported self-splicing fitness (ln).
- METHOD_NOTES: self-splicing fitness, log relative to wild type (ln ratio); higher = more splicing; Tetrahymena group I intron in knt gene, E. coli kanamycin selection, DiMSum; sequences stand for … in CUCUCU…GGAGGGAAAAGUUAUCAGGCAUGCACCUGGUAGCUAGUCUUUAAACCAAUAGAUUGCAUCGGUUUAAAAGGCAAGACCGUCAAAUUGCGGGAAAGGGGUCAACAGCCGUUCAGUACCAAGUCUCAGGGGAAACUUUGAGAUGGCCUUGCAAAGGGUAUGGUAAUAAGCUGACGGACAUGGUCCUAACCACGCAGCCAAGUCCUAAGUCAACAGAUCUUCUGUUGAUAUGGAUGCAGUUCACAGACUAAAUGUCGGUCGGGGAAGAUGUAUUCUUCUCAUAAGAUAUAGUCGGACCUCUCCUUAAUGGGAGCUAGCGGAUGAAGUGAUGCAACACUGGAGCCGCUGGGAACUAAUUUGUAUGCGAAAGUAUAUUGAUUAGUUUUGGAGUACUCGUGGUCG
- RECORDED_CONDITIONS: 30 °C
REPORTED_METRIC: self-splicing fitness (ln)

- AUGAAGCAAUAUUACGGGAU: -0.638
- GGGAAGCAAUAUUACGACUU: 0.323
- CAGUAGCAAUAUUACGCAAU: -1.7
- GCCAAGCAAUAUUACGGUUG: -3.23
- GAACAGCAAUAUUACGGCCU: -1.14
- ACCAAGCAAUAUUACGGCUG: -1.55
- ACGCAGCAAUAUUACGCUCU: -0.517
- ACCCAGCAAUAUUACGCGGC: -2.93
- UUUAAGCAAUAUUACGCUUG: -3.29
- UAGAAGCAAUAUUACGUAGC: -3.74
- AACGAGCAAUAUUACGAGCA: -2.69
- UACCAGCAAUAUUACGCGGA: -1.69
- CCCAAGCAAUAUUACGCCGU: -3.66
- AUCCAGCAAUAUUACGAUAU: -0.123
- CUUCAGCAAUAUUACGGCUA: -3.01
- GUUAAGCAAUAUUACGAGUU: -1.36
- ACUAAGCAAUAUUACGGGCA: -1.27
- UGUUAGCAAUAUUACGGACA: -1.59
- ACACAGCAAUAUUACGAAGU: -3.43
- AUGUAGCAAUAUUACGCUAA: -1.75
- ACGUAGCAAUAUUACGGCGA: 0.0177
- UCGGAGCAAUAUUACGUAAG: -2.77
- UGUAAGCAAUAUUACGCGCA: -0.603
- GCCGAGCAAUAUUACGAGGG: -3.58
- UCACAGCAAUAUUACGGGCC: -3.95
- CAGAAGCAAUAUUACGCAGG: -2.75
- UGCAAGCAAUAUUACGCAAU: -3.55
- AUCGAGCAAUAUUACGGGCA: -1.99
- CCGAAGCAAUAUUACGGAUU: -2.88
- UCGAAGCAAUAUUACGUUUC: -1.9
- CGUUAGCAAUAUUACGACUU: -1.03
- AAAGAGCAAUAUUACGUCUG: -3.55
- GCAAAGCAAUAUUACGGGUA: -1.55
- GCGUAGCAAUAUUACGUUGA: -3.16
- ACUAAGCAAUAUUACGCCAA: -2.24
- CCCAAGCAAUAUUACGUAAG: -3.05
- UAGCAGCAAUAUUACGGUGU: -3.53
- ACAGAGCAAUAUUACGCAUC: -4.07
- CUUCAGCAAUAUUACGUAUA: -3.15
- UUUCAGCAAUAUUACGCGGC: -2.67
- UCCUAGCAAUAUUACGGCUU: -3.41
- GAGCAGCAAUAUUACGUUGG: -0.945
- GAACAGCAAUAUUACGACAA: -1.24
- AUCAAGCAAUAUUACGGAAC: -4.1
- GGACAGCAAUAUUACGGCUC: 0.0372
- CGCUAGCAAUAUUACGUUCC: -2.83
- CGCUAGCAAUAUUACGCGCC: -2.52
- CCUCAGCAAUAUUACGCUGC: -3.53
- AGAUAGCAAUAUUACGUGUA: -2.9
- AAACAGCAAUAUUACGUGCG: -1.52
- UGUCAGCAAUAUUACGGUCG: -0.443
- UGACAGCAAUAUUACGUACC: -1.78
- CGCUAGCAAUAUUACGAGAC: -3.36
- ACCGAGCAAUAUUACGUCCG: -4.36
- UUAAAGCAAUAUUACGGGGG: -1.83
- CGUAAGCAAUAUUACGAAAC: -2.84
- UCUUAGCAAUAUUACGUUAA: -2.98
- GUAAAGCAAUAUUACGUUCA: -0.419
- CAUUAGCAAUAUUACGCGCC: -3.41
- CCCAAGCAAUAUUACGAUGU: -3.53
- UCACAGCAAUAUUACGUUUG: -2.21
- CUACAGCAAUAUUACGAGGA: -3.4
- GCAUAGCAAUAUUACGUCAG: -2.47
- UUAAAGCAAUAUUACGUCAG: -0.815
- AUAAAGCAAUAUUACGAUUA: -0.144
- UGAAAGCAAUAUUACGGUAG: -0.656
- CAGAAGCAAUAUUACGAGUC: -3.79
